target: LRRK2 G2019S (Homo sapiens, UniProt Q5S007, G2019S); experiment: LRRK2 G2019S kinase activity assay (LanthaScreen TR-FRET); conditions: 250 pM LRRK2 G2019S, 1.3 mM ATP, 3 h at 30° C.; n≥2 tests
Sequence (Q5S007 970-2527 G2019S): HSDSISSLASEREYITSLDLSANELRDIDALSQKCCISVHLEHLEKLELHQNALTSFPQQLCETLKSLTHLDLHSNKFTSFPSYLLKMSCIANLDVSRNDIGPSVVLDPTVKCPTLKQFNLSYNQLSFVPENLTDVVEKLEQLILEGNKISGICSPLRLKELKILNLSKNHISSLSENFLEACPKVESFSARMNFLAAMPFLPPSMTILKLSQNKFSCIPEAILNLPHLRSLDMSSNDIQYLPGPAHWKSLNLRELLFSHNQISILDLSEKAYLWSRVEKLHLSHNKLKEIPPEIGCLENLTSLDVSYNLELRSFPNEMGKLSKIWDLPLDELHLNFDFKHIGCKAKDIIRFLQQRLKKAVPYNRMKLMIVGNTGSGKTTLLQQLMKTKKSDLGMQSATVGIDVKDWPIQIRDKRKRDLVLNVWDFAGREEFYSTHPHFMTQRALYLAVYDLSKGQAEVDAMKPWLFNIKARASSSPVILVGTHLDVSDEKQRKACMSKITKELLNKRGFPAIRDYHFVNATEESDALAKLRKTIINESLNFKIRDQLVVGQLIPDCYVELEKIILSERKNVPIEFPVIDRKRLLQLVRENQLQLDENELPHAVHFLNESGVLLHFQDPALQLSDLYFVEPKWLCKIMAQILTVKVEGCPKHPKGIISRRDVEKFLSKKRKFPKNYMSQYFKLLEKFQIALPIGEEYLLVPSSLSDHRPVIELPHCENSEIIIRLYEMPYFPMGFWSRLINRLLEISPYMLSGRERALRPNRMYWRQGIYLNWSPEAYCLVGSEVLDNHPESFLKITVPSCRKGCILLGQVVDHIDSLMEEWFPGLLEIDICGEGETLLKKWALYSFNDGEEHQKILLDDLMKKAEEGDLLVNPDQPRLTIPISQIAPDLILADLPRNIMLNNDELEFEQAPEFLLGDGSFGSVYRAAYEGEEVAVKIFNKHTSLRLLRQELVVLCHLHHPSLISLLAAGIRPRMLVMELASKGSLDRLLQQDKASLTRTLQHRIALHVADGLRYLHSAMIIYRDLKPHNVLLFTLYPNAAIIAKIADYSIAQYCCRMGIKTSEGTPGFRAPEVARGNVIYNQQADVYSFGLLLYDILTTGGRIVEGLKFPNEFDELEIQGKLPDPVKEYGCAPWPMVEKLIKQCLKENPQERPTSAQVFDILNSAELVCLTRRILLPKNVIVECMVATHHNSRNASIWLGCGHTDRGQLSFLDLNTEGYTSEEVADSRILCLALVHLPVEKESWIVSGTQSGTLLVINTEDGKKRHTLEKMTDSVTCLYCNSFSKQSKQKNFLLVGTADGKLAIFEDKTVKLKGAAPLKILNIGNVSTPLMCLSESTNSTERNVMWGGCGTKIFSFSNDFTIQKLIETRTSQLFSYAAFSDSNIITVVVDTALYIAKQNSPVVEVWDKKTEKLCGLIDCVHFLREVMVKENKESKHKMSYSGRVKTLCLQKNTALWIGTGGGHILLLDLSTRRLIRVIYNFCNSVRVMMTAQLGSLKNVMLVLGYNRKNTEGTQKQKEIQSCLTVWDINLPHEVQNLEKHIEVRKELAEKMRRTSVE
I'd appreciate it if you could supply pIC50 values for the items below.
Note on pIC50: it is the negative log10 of concentration, concentration in mol/L.

Which measured pIC50 value corresponds to Cc1c2c(nn1[C@@H]1CCOC[C@@H]1C)OCCCn1nc(Cl)c3cnc(nc31)N2 (single isomer, unassigned) [Example 24] ? 8.33

Again, but for CCc1c2c(nn1[C@H]1CC[C@H](OC)CC1)OCCCn1nc(Cl)c3cnc(nc31)N2 8.21

Again, but for Cc1c2c(nn1[C@@H]1CCO[C@H](C)C1)OCCCn1nc(Cl)c3cnc(nc31)N2 (single isomer, unassigned) [Example 19] 8.41

Again, but for Cc1c2c(nn1[C@H]1CCOC(C)(C)C1)OCCCn1nc(Cl)c3cnc(nc31)N2 (single isomer, unassigned) [Example 42] 8.54

Again, but for Cc1c2c(nn1[C@@H]1CCOC[C@H]1F)OCCCn1nc(Cl)c3cnc(nc31)N2 (single isomer, unassigned) [Example 32] 8.21

Again, but for Cc1c2c(nn1C1(C)COC1)OCCCn1nc(Cl)c3cnc(nc31)N2 8.40

Again, but for Cc1nn2c3nc(ncc13)Nc1c(nn(C3CCOCC3)c1C)OCCC2 7.68

Again, but for Cc1c2c(nn1[C@@H]1CCOC[C@H]1F)OCCCn1nc(Cl)c3cnc(nc31)N2 (single isomer, unassigned) [Example 31] 8.62

Again, but for Cc1c2c(nn1[C@@H]1C[C@H]3CC[C@@H](C1)O3)OCCCn1nc(Cl)c3cnc(nc31)N2 8.37

Again, but for [2H]C([2H])([2H])c1c2c(nn1[C@@H]1CCOC[C@H]1F)OCCCn1nc(Cl)c3cnc(nc31)N2 (single isomer, unassigned) [Example 62] 8.23

Again, but for Cc1c2c(nn1[C@H]1CCCCOC1)OCCCn1nc(Cl)c3cnc(nc31)N2 (single isomer, unassigned) [Example 27] 8.14

Again, but for [2H]C([2H])([2H])c1c2c(nn1[C@H]1CCCOCC1)OCCCn1nc(Cl)c3cnc(nc31)N2 (single isomer, unassigned) [Example 59] 8.21

Again, but for Cc1c2c(nn1C)OCCCn1nc(Cl)c3cnc(nc31)N2 7.74

Again, but for Cc1c2c(nn1[C@@H]1CC1(F)F)OCCCn1nc(Cl)c3cnc(nc31)N2 (single isomer, unassigned) [Example 40] 7.92

Again, but for [2H]C([2H])([2H])c1c2c(nn1[C@H]1CCOC3(CC3)C1)OCCCn1nc(Cl)c3cnc(nc31)N2 (single isomer, unassigned) [Example 65] 8.77

Again, but for [2H]C([2H])([2H])c1c2c(nn1[C@H]1CCOC3(CC3)C1)OCCCn1nc(Cl)c3cnc(nc31)N2 (single isomer, unassigned) [Example 64] 8.30

Again, but for [2H]C([2H])([2H])c1c2c(nn1[C@@H]1CCCOC1)OCCCn1nc(Cl)c3cnc(nc31)N2 (single isomer, unassigned) [Example 60] 8.05

Again, but for Cc1c2c(nn1[C@H]1[C@@H]3COC[C@@H]31)OCCCn1nc(Cl)c3cnc(nc31)N2 7.96

Again, but for Cc1c2c(nn1[C@H]1CCCOCC1)OCCCn1nc(Cl)c3cnc(nc31)N2 (single isomer, unassigned) [Example 29] 8.37

Again, but for Cc1c2c(nn1C13CC(C#N)(C1)C3)OCCCn1nc(Cl)c3cnc(nc31)N2 8.23

Again, but for [2H]C([2H])([2H])c1c2c(nn1C1CCOCC1)OCCCn1nc(Cl)c3cnc(nc31)N2 8.60

Again, but for Cc1c2c(nn1[C@@H]1CCOC[C@@H]1C)OCCCn1nc(Cl)c3cnc(nc31)N2 (single isomer, unassigned) [Example 23] 7.70

Again, but for Cc1c2c(nn1[C@@H]1CCOC3(CC3)C1)OCCCn1nc(Cl)c3cnc(nc31)N2 (single isomer, unassigned) [Example 54] 9.06

Again, but for Clc1nn2c3nc(ncc13)Nc1c(nn(C3CCOCC3)c1C1CC1)OCCC2 8.21

Again, but for CCc1c2c(nn1[C@@H]1CCOC[C@H]1F)OCCCn1nc(Cl)c3cnc(nc31)N2 (single isomer, unassigned) [Example 56] 8.70

Again, but for [2H]C1([2H])CCOc2nn(C3CCOCC3)c(C)c2Nc2ncc3c(Cl)nn1c3n2 8.44

Again, but for Cc1c2c(nn1C1(C#N)CC1)OCCCn1nc(Cl)c3cnc(nc31)N2 8.14

Again, but for [2H]C([2H])([2H])c1c2c(nn1[C@H]1CCO[C@@H](C)C1)OCCCn1nc(Cl)c3cnc(nc31)N2 (single isomer, unassigned) [Example 52] 8.00

----------
experiment: Free fraction in plasma (equilibrium dialysis); format: in vitro ADME, male Sprague-Dawley rat; conditions: rat plasma, 1 μM, 5 h at 37° C.
Measurement name: fuplasma (% free)
Respond numerically; units are % free and should not be typed.

Which measured fuplasma (% free) value corresponds to Cc1c2c(nn1[C@H]1[C@@H]3COC[C@@H]31)OCCCn1nc(Cl)c3cnc(nc31)N2 ? 30.0

Again, but for Cc1c2c(nn1C1CCOCC1)OCCCn1nc(C(F)(F)F)c3cnc(nc31)N2 32.2

Again, but for Cc1c2c(nn1C1CCOCC1)OCCCn1nc(C3CC3)c3cnc(nc31)N2 28.7

Again, but for Cc1c2c(nn1[C@@H]1CCOC3(CC3)C1)OCCCn1nc(Cl)c3cnc(nc31)N2 (single isomer, unassigned) 17.1

Again, but for Cc1c2c(nn1[C@H]1CC[C@H](F)CC1)OCCCn1nc(Cl)c3cnc(nc31)N2 12.0

Again, but for Cc1c2c(nn1[C@H]1CCCCOC1)OCCCn1nc(Cl)c3cnc(nc31)N2 (single isomer, unassigned) 19.9

Again, but for Cc1c2c(nn1[C@H]1CCCOC1)OCCCn1nc(Cl)c3cnc(nc31)N2 (single isomer, unassigned) 25.3

Again, but for Cc1c2c(nn1[C@H]1CCOC(C)(C)C1)OCCCn1nc(Cl)c3cnc(nc31)N2 (single isomer, unassigned) 21.7

Again, but for [2H]C([2H])([2H])c1c2c(nn1C1CCOCC1)OCCCn1nc(Cl)c3cnc(nc31)N2 32.0

Again, but for Clc1nn2c3nc(ncc13)Nc1c(nn(C3CCOCC3)c1C1CC1)OCCC2 30.2

Again, but for Cc1c2c(nn1[C@@H]1CC1(F)F)OCCCn1nc(Cl)c3cnc(nc31)N2 (single isomer, unassigned) 12.7

Again, but for CCc1c2c(nn1C1CCOCC1)OCCCn1nc(Cl)c3cnc(nc31)N2 27.5

Again, but for Cc1c2c(nn1C13CC(C#N)(C1)C3)OCCCn1nc(Cl)c3cnc(nc31)N2 11.0

Again, but for CO[C@H]1CC[C@H](n2nc3c(c2C)Nc2ncc4c(Cl)nn(c4n2)CCCO3)CC1 18.2

Again, but for Cc1c2c(nn1C1(C)COC1)OCCCn1nc(Cl)c3cnc(nc31)N2 38.0

Again, but for Cc1c2c(nn1[C@@H]1CCO[C@H](C)C1)OCCCn1nc(Cl)c3cnc(nc31)N2 (single isomer, unassigned) [Example 18] 25.0

----------
assay: Rat B/P (brain disposition); format: in vivo, male Sprague-Dawley rats; conditions: male, Sprague-Dawley, brain/plasma, oral gavage 10 mg/kg, time point 0.5 h, fubrain from brain homogenate
Measurement name: Kp uu at 0.5 h
# print the numeric value only

Which measured Kp uu at 0.5 h value corresponds to Cc1c2c(nn1[C@H]1[C@@H]3COC[C@@H]31)OCCCn1nc(Cl)c3cnc(nc31)N2 ? 0.48

Again, but for Cc1c2c(nn1[C@@H]1CCO[C@H](C)C1)OCCCn1nc(Cl)c3cnc(nc31)N2 (single isomer, unassigned) 0.4

Again, but for Cc1c2c(nn1[C@H]1CCOC(C)(C)C1)OCCCn1nc(Cl)c3cnc(nc31)N2 (single isomer, unassigned) 0.32

Again, but for Cc1c2c(nn1[C@@H]1C[C@H]3CC[C@@H](C1)O3)OCCCn1nc(Cl)c3cnc(nc31)N2 0.3

----------
I'd appreciate it if you could supply IC50 values for the items below.
biological target: LRRK2 WT (Homo sapiens)
Sequence (Q5S007 970-2527): as the sequence (Q5S007 970-2527 G2019S) above, with S1050G counted along it
Respond numerically; units are nM and should not be typed.

Record lookup: for LRRK2 WT (Homo sapiens), what IC50 belongs to Cc1c2c(nn1C1CCOCC1)OCCCn1nc(C#N)c3cnc(nc31)N2 [Example 9] ? 110

Again, but for Cc1c2c(nn1[C@@H]1CC1(F)F)OCCCn1nc(Cl)c3cnc(nc31)N2 (single isomer, unassigned) [Example 39] 19

Again, but for Cc1nn2c3nc(ncc13)Nc1c(nn(C3CCOCC3)c1C)OCCC2 [Example 8] 93

Again, but for CCc1c2c(nn1C1CCOCC1)OCCCn1nc(Cl)c3cnc(nc31)N2 [Example 17] 15
